# Type: in vivo, BALB/c mice
# CONDITION_DESCRIPTION: BALB/c, mouse, fat, iv, 20 mg/kg
PROPERTY_NAME: AUC(0-inf) (ng·h/mL)
Answer format: numeric, ng·h/mL implied, no suffix.

Given CNCc1ccc(-c2cc(-c3nc(-c4ccc(S(=O)(=O)C(C)C)cc4)cnc3N)on2)cc1 , state its recorded AUC(0-inf).
25200

====

# PROTOCOL_SUMMARY: Dose linearity study: single IV dose PK, noncompartmental analysis
# Format: in vivo, female BALB/c mice
# CONDITION_DESCRIPTION: female, BALB/c, mouse, plasma, iv, 2 mg/kg, AUC0–360, plasma; 2.0 mg/kg IV
PROPERTY_NAME: AUC(0-t) (ng·h/mL)
Answer format: numeric, ng·h/mL implied, no suffix.

Given CNCc1ccc(-c2cc(-c3nc(-c4ccc(S(=O)(=O)C(C)C)cc4)cnc3N)on2)cc1 , state its recorded AUC(0-t).
765

====

# Type: in vivo, BALB/c mice
# CONDITION_DESCRIPTION: BALB/c, mouse, red blood cells (RBC), iv, 20 mg/kg, AUC0-t, RBC; 20 mg/kg IV; 0–1440 min
PROPERTY_NAME: AUC(0-t) (µg·h/mL)
Answer format: numeric, µg·h/mL implied, no suffix.

Given CNCc1ccc(-c2cc(-c3nc(-c4ccc(S(=O)(=O)C(C)C)cc4)cnc3N)on2)cc1 , state its recorded AUC(0-t).
5.53

====

# PROTOCOL_SUMMARY: Dose linearity study: single IV dose PK, noncompartmental analysis
# Assay type: in vivo, female BALB/c mice
# CONDITION_DESCRIPTION: female, BALB/c, mouse, plasma, iv, 6 mg/kg
PROPERTY_NAME: half-life
Your answer should be a number followed by the unit of measure.

Given CNCc1ccc(-c2cc(-c3nc(-c4ccc(S(=O)(=O)C(C)C)cc4)cnc3N)on2)cc1 , state its recorded half-life.
2.73 h

====

# Assay type: in vivo, BALB/c mice
# CONDITION_DESCRIPTION: BALB/c, mouse, tumor (CT26), iv, 20 mg/kg
PROPERTY_NAME: Cmax (ng/mL)
Answer format: numeric, ng/mL implied, no suffix.

Given CNCc1ccc(-c2cc(-c3nc(-c4ccc(S(=O)(=O)C(C)C)cc4)cnc3N)on2)cc1 , state its recorded Cmax.
13100

====

# Assay type: in vivo, BALB/c mice
# CONDITION_DESCRIPTION: BALB/c, mouse, kidney, iv, 20 mg/kg, AUC0-t; 20 mg/kg IV; 0–1440 min
PROPERTY_NAME: AUC(0-t) (µg·h/mL)
Answer format: numeric, µg·h/mL implied, no suffix.

Given CNCc1ccc(-c2cc(-c3nc(-c4ccc(S(=O)(=O)C(C)C)cc4)cnc3N)on2)cc1 [berzosertib] , state its recorded AUC(0-t).
821

====

# Format: in vivo, BALB/c mice
# CONDITION_DESCRIPTION: BALB/c, mouse, plasma, iv, 20 mg/kg, AUC0–360, plasma; 20 mg/kg IV-ext, tumor-bearing mice
PROPERTY_NAME: AUC(0-t) (ng·h/mL)
Answer format: numeric, ng·h/mL implied, no suffix.

Given CNCc1ccc(-c2cc(-c3nc(-c4ccc(S(=O)(=O)C(C)C)cc4)cnc3N)on2)cc1 , state its recorded AUC(0-t).
9850

====

# Type: in vivo, BALB/c mice
# CONDITION_DESCRIPTION: BALB/c, mouse, non-draining lymph node, iv, 20 mg/kg, AUC0-t; 20 mg/kg IV; 0–1440 min
PROPERTY_NAME: AUC(0-t)
Your answer should be a number followed by the unit of measure.

Given CNCc1ccc(-c2cc(-c3nc(-c4ccc(S(=O)(=O)C(C)C)cc4)cnc3N)on2)cc1 , state its recorded AUC(0-t).
111 µg·h/mL

====

# Assay type: in vivo, BALB/c mice
# CONDITION_DESCRIPTION: BALB/c, mouse, bone marrow, iv, 20 mg/kg
PROPERTY_NAME: Cmax (µg/mL)
Answer format: numeric, µg/mL implied, no suffix.

Given CNCc1ccc(-c2cc(-c3nc(-c4ccc(S(=O)(=O)C(C)C)cc4)cnc3N)on2)cc1 [berzosertib] , state its recorded Cmax.
164

====

# Type: in vivo, BALB/c mice
# CONDITION_DESCRIPTION: BALB/c, mouse, thymus, iv, 20 mg/kg, AUC0-t; 20 mg/kg IV; 0–1440 min
PROPERTY_NAME: AUC(0-t) (ng·h/mL)
Answer format: numeric, ng·h/mL implied, no suffix.

Given CNCc1ccc(-c2cc(-c3nc(-c4ccc(S(=O)(=O)C(C)C)cc4)cnc3N)on2)cc1 [berzosertib] , state its recorded AUC(0-t).
84500

====

# Assay type: in vivo, BALB/c mice
# CONDITION_DESCRIPTION: BALB/c, mouse, esophagus, iv, 20 mg/kg
PROPERTY_NAME: AUC(0-inf)

Given CNCc1ccc(-c2cc(-c3nc(-c4ccc(S(=O)(=O)C(C)C)cc4)cnc3N)on2)cc1 [berzosertib] , state its recorded AUC(0-inf).
46700 ng·h/mL

====

# PROTOCOL_SUMMARY: Dose linearity study: single IV dose PK, noncompartmental analysis
# Type: in vivo, female BALB/c mice
# CONDITION_DESCRIPTION: female, BALB/c, mouse, plasma, iv, 2 mg/kg
PROPERTY_NAME: Vd (L/kg)
Answer format: numeric, L/kg implied, no suffix.

Given CNCc1ccc(-c2cc(-c3nc(-c4ccc(S(=O)(=O)C(C)C)cc4)cnc3N)on2)cc1 , state its recorded Vd.
8.49

====

# PROTOCOL_SUMMARY: Dose linearity study: single IV dose PK, noncompartmental analysis
# Assay type: in vivo, female BALB/c mice
# CONDITION_DESCRIPTION: female, BALB/c, mouse, plasma, iv, 60 mg/kg, AUC0-t; 60 mg/kg IV
PROPERTY_NAME: AUC(0-t)
Your answer should be a number followed by the unit of measure.

Given CNCc1ccc(-c2cc(-c3nc(-c4ccc(S(=O)(=O)C(C)C)cc4)cnc3N)on2)cc1 , state its recorded AUC(0-t).
29400 ng·h/mL

====

# PROTOCOL_SUMMARY: Dose linearity study: single IV dose PK, noncompartmental analysis
# Assay type: in vivo, female BALB/c mice
# CONDITION_DESCRIPTION: female, BALB/c, mouse, plasma, iv, 6 mg/kg
PROPERTY_NAME: AUC(0-inf) (ng·h/mL)
Answer format: numeric, ng·h/mL implied, no suffix.

Given CNCc1ccc(-c2cc(-c3nc(-c4ccc(S(=O)(=O)C(C)C)cc4)cnc3N)on2)cc1 , state its recorded AUC(0-inf).
2450

====

# Format: in vivo, BALB/c mice
# CONDITION_DESCRIPTION: BALB/c, mouse, esophagus, iv, 20 mg/kg
PROPERTY_NAME: Tmax (min)
Answer format: numeric, min implied, no suffix.

Given CNCc1ccc(-c2cc(-c3nc(-c4ccc(S(=O)(=O)C(C)C)cc4)cnc3N)on2)cc1 , state its recorded Tmax.
30

====

# Assay type: in vivo, BALB/c mice
# CONDITION_DESCRIPTION: BALB/c, mouse, tumor (CT26), iv, 20 mg/kg
PROPERTY_NAME: AUC(0-inf) (µg·h/mL)
Answer format: numeric, µg·h/mL implied, no suffix.

Given CNCc1ccc(-c2cc(-c3nc(-c4ccc(S(=O)(=O)C(C)C)cc4)cnc3N)on2)cc1 , state its recorded AUC(0-inf).
140

====

# Type: in vivo, BALB/c mice
# CONDITION_DESCRIPTION: BALB/c, mouse, liver, iv, 20 mg/kg
PROPERTY_NAME: Kp
// print number alone

Given CNCc1ccc(-c2cc(-c3nc(-c4ccc(S(=O)(=O)C(C)C)cc4)cnc3N)on2)cc1 , state its recorded Kp.
25.5

====

# Type: in vivo, BALB/c mice
# CONDITION_DESCRIPTION: BALB/c, mouse, liver, iv, 20 mg/kg
PROPERTY_NAME: Cmax (µg/mL)
Answer format: numeric, µg/mL implied, no suffix.

Given CNCc1ccc(-c2cc(-c3nc(-c4ccc(S(=O)(=O)C(C)C)cc4)cnc3N)on2)cc1 , state its recorded Cmax.
79.8

====

# PROTOCOL_SUMMARY: Dose linearity study: single IV dose PK, noncompartmental analysis
# Assay type: in vivo, female BALB/c mice
# CONDITION_DESCRIPTION: female, BALB/c, mouse, plasma, iv, 6 mg/kg, AUC0-t; 6.0 mg/kg IV
PROPERTY_NAME: AUC(0-t) (ng·h/mL)
Answer format: numeric, ng·h/mL implied, no suffix.

Given CNCc1ccc(-c2cc(-c3nc(-c4ccc(S(=O)(=O)C(C)C)cc4)cnc3N)on2)cc1 , state its recorded AUC(0-t).
2100

Origin of the recorded values: paper PMC11390321
